System: TK-10 renal
Assay: NCI-60 one-dose screen, 48 h
Details: 10 µM unless noted
The panel holds about 83,000 compounds, 20% with a hit somewhere; the sample as a whole holds those more often. The source made the active and inactive calls. The calls were made as follows: active = growth percent below 10; inactive = the rest.
Outcome codes: TRUE (active), FALSE (inactive)

{"columns": ["molecule", "classification"],
 "data": [
  ["O1[As]2O[As]3O[As]1O[As](O2)O3", "TRUE"],
  ["Cn1cnnc1[S-].[Au+].c1ccc([PH+](c2ccccc2)c2ccccc2)cc1", "TRUE"],
  ["O=C(O)c1cccc(CCl)c1", "FALSE"],
  ["NC(Cc1ccc2c(c1)OCO2)c1ccc2c(c1)OCO2 (stereo not given)", "FALSE"],
  ["C[C@]12CC[C@@H]3c4ccc(OC(=O)Cc5ccc(N(CCCl)CCCl)cc5)cc4CC[C@H]3[C@@H]1CC[C@@H]2OC(=O)Cc1ccc(N(CCCl)CCCl)cc1", "FALSE"],
  ["CC1(C)N=C(N)N=C(N)N1c1cccc(C(=O)Nc2cccc(S(=O)(=O)F)c2)c1", "FALSE"],
  ["CC1([N+](=O)[O-])COP(=O)(Nc2ccc(F)cc2)OC1 (stereo not given)", "FALSE"],
  ["COC(=O)C[Se]C(=O)c1ccccc1OC(C)=O", "FALSE"],
  ["CC12CCC3C(CC=C4CC(O)CCC43C)C1C/C(=C\\N1CCOCC1)C2=O (stereo not given)", "FALSE"],
  ["CC(=O)OC1CCC2(C)C(=CCC3C4CC(CN5CC5)C(=O)C4(C)CCC32)C1 (stereo not given)", "TRUE"]
]}

###

System: OVCAR-3 ovarian
Assay: NCI-60 one-dose screen, 48 h (100 = growth as untreated, 0 = no growth, -100 = all killed)
Conditions: 10 µM unless noted
This is part of a sample that, as a whole, favours compounds with a hit. Of some 83,000 tested, about 20% had one in any assay.

{"columns": ["compound", "growth / %"],
 "data": [
  ["C/C(=N/OC(=O)N(C)C)c1ccc(Cl)cc1Cl", 99.5],
  ["OC1(c2ccccc2F)c2ccccc2C2=NCCN21 (configuration not stated)", 87.9],
  ["O=[As]c1ccc(C(=O)c2ccc(Oc3ccccc3)cc2)cc1 (configuration not stated)", -93.9],
  ["C[As](=O)(O)c1ccc(C(=O)O)cc1", 121],
  ["CC1(C)N=C(N)N=C(N)N1c1ccc(CNC(=O)Nc2ccc(S(=O)(=O)F)c(Cl)c2)c(Cl)c1", 48.9],
  ["CC(C)Nc1ccc(Nc2ccccc2)cc1", 7.43],
  ["CC(=O)O[C@H]1CCC2C3CCC4=C/C(=N/O)CCC4(C)C3CCC21C (some centres not stated)", 107],
  ["CCC(CO)NC1CCCCC1 (configuration not stated)", 100],
  ["CC(C)N=C(NC(C)C)N1CC1", 109],
  ["C[C@]12CC[C@H](OC3OC(O)C(O)C(O)C3O)C=C1CCC1C2CC[C@]2(C)[C@@H](c3ccc(=O)oc3)CC[C@]12O (some centres not stated)", -99.2],
  ["OB([O][Hg][c]1ccccc1)[O][Hg][c]1ccccc1", -89.6],
  ["O=c1cc[nH]c(=O)o1", 107]
]}

###

Tested on: SR leukemia
Experiment: NCI-60 one-dose screen, 48 h
Settings: 10 µM
Protocol: Growth inhibition of the SR human tumor cell line is measured as a screen for anti-cancer activity. Cells are grown in 96 well plates and exposed to the test compound for 48 hours. Compounds are tested at a single concentration, which is 10^-5 M for most compounds. The reported endpoint is percent growth (GI% or GIPRCNT), where numbers from 0 - 100% represent growth inhibition, and numbers from -100% - 0 represent cell death. For example, a value of 40 represents 60% growth inhibition. […]
This is part of a sample that, as a whole, favours compounds with a hit. Of some 83,000 tested, about 20% had one in any assay. Active and inactive are the calls of the source. Rule for the calls: active = growth percent below 10; inactive = the rest.
Outcomes: class 1 (active), class 0 (inactive)

{"columns": ["compound", "classification"],
 "data": [
  ["Clc1ccc(SSC(Cl)(Cl)Cl)cc1", "class 0"],
  ["CC(=O)OC1CCC2(C)C(=CCC3C4CC(CN5CC5)C(=O)C4(C)CCC32)C1 (stereo not drawn)", "class 0"],
  ["C[C@]12CC[C@@H]3c4ccc(OC(=O)Cc5ccc(N(CCCl)CCCl)cc5)cc4CC[C@H]3[C@@H]1CC[C@@H]2OC(=O)Cc1ccc(N(CCCl)CCCl)cc1", "class 0"],
  ["CCCCn1cc(C(=O)/C(C#N)=C/c2cc3ccccc3nc2Cl)c2cc(OC)ccc21", "class 1"],
  ["c1ccc(-c2ccc3ccccc3[o+]2)cc1", "class 0"],
  ["O=C(/C=C/c1ccccc1)N[C@@H](CO)Cc1cnc[nH]1", "class 0"],
  ["CN(Cc1cccnc1)N=O", "class 0"],
  ["O=[N+]([O-])c1ccc(/C=C/C=C/c2ccc(S(=O)(=O)F)cc2)c(Cl)c1", "class 0"],
  ["COc1ccc(NP2(=O)OCC(C)(N)CO2)cc1 (stereo not drawn)", "class 0"],
  ["CNC(=O)Oc1cccc(N(C)C)c1", "class 0"],
  ["CNC(=O)Oc1ccccc1-c1ccccc1", "class 0"],
  ["CC(C)OC(=S)[S-].[Au+].c1ccc([PH+](c2ccccc2)c2ccccc2)cc1", "class 1"],
  ["COc1ccc(C(=O)c2ccc([As]=O)cc2)cc1 (stereo not drawn)", "class 1"],
  ["c1ccc(CCN2CCCCC2Cc2ccccc2)cc1 (stereo not drawn)", "class 0"],
  ["Cc1ccc(C(=O)C2CN(C)CCC2(O)c2ccc(C)cc2)cc1 (stereo not drawn)", "class 0"],
  ["C[C@]12CCc3sc(-c4ccc(Cl)cc4)nc3C1=CC[C@@H]1[C@@H]2CC[C@]2(C)C(=O)CC[C@@H]12", "class 0"],
  ["Oc1ccc2c3c1O[C@H]1c4[nH]c5ccccc5c4C[C@@]4(O)C(C2)N(CC2CC2)CC[C@]314", "class 0"],
  ["CCN(CC)CCOc1c(C(C)C)cccc1C(C)C", "class 1"],
  ["CCC1CN1P(=O)(OCCOC)N1CC1CC (stereo not drawn)", "class 0"],
  ["CC(=O)C1C(=O)N(C)C(=O)N(C)C1=O", "class 0"],
  ["N#C[Se]CCN1C(=O)C2C(C1=O)[C@H]1C=C[C@@H]2S1 (stereo partly drawn)", "class 1"],
  ["N#[N+]c1nc2nc(N)[nH]c(=O)c2[nH]1", "class 0"],
  ["CC(CC(C#N)(c1ccccc1)c1ccccc1)N1CCOCC1 (stereo not drawn)", "class 0"]
]}
